Values compiled from PubChem BioAssay (NCI).

// GI50 lookup, one value per entry
# System: BT-549 breast
# PROCEDURE_SUMMARY: NCI tumour cell line growth inhibition, 48 h

COMPOUND | TARGET_OF_ASSAY | GI50
O=c1[nH]c(C2CCCN2)nc2c1oc1ccc(Cl)cc12 (stereo unspecified) | BT-549 breast | 31.5 µM
CCCCCCCC/C=C/CCCCCCCC1=NC(C)(C)CN1C(C)(C)CO | BT-549 breast | 11.3 µM
COc1ccc(-c2ccc(C3CC(c4ccccc4)=NN3)o2)c([N+](=O)[O-])c1 (stereo unspecified) | BT-549 breast | 47.4 µM
NC(N)=N/N=C\c1ccc(OCc2ccccc2)cc1 | BT-549 breast | 10.8 µM
CN1CCN(C2=NC(=O)/C(=C\c3ccc(N(C)C)cc3)S2)CC1 | BT-549 breast | > 100 µM

query: If you can, please state the reported GI50 value of CCCCNC(c1ccc(Cl)cc1)C(O)c1ccc(Cl)cc1 (stereo unspecified) .
result: 5.63 µM
